These measurements were taken from the supplement of paper PMC10724198.

- Test system: Saccharomyces cerevisiae;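 further: PSI is a weighted mean of sequencing reads over stability bins, variants kept only with over 10 reads, mCherry proximal and sfGFP distal, peptide attached via GGGS linker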
- test protocol: protein stability index of tFT-peptide fusion (C-terminal peptide) (PSI (0-1 scale)); higher = more stable (slower turnover)
- condition label: genetic background: wild type; temperature: 30 C
Label criterion met when protein stability index >= 0.3; otherwise criterion not met.

>  <residue codes>
AFRLRHEIISLM

>  <category label>
criterion not met

$$$$
>  <residue codes>
LLRLPLLALLFV

>  <category label>
criterion not met

$$$$
>  <residue codes>
ALRLVAFFWVPG

>  <category label>
criterion met

$$$$

Is it the case that `EMPRLSKAIRVT` has protein stability index reaching or exceeding 0.3? criterion met

Is it the case that `LPSPPSSPPLRP` has protein stability index reaching or exceeding 0.3? criterion met

Is it the case that `GVFISFFFVFRF` has protein stability index reaching or exceeding 0.3? criterion not met
